- experimental details: chemical genetic growth profiling, strain panel (AID 1159580);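 further: tested at 20 µM; growth read once vehicle control cultures reached saturation at 30 °C; lower values mean less growth of the strain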
- measurement setup: S. cerevisiae deletion strains, growth OD, locus YKL190W, strain CNB1
In all, about 5,500 compounds went through this assay and about 2,000 (36%) were called active. Inconclusive results (about 18%) are left out. No stated cut-off is given here; in the data, active means normalized growth mostly below about 0.91 (no sharp cut-off); inconclusive means no clear call, values can overlap the other calls; inactive means mostly above about 0.92. This is one part of the list.
// allowed return values: active, inactive

Some entries whose results are on file:
{"columns": ["compound", "label class"],
 "data": [
  ["COC(=O)c1c(Cl)c(Cl)c(C(=O)OC)c(Cl)c1Cl", "inactive"],
  ["O=C1C[C@@H](c2ccc(O)cc2)Oc2cc(O)cc(O)c21", "inactive"],
  ["COC(=O)c1c(C)[nH]c(C)c1C(C)=O", "inactive"],
  ["COc1ccc(C2CC(=O)c3ccc(OC)cc3O2)cc1 (stereo not given)", "inactive"]
]}

Ask: In this assay, the call recorded for COc1cc(OC)c2c(c1)OC(c1ccccc1)CC2=O (stereo not given) was what?
Reply: inactive

Ask: Please indicate how the test categorized `COc1ccc2c(c1)OC[C@@H](Cc1ccc(OC)c(OC)c1)[C@@H]2O` .
Reply: inactive

Ask: Could you please tell me the result logged for O=C1CC(c2ccc(O)cc2)Oc2ccccc21 (stereo not given) in this assay?
Reply: active

Ask: Which outcome was entered for the compound `C[C@@H]1O[C@@H](O[C@H]2[C@@H](Oc3cc(O)c4c(c3)O[C@H](c3ccc(O)cc3)CC4=O)O[C@H](CO)[C@@H](O)[C@@H]2O)[C@H](O)[C@H](O)[C@H]1O` in this test?
Reply: inactive

Ask: State the result this test recorded for `O=C1C[C@@H](c2ccccc2)Oc2cc(O)cc(O)c21` .
Reply: inactive

Ask: Hi team, can someone confirm the assay call for CC(C)CC1C(=O)N2CCC[C@H]2C2(O)O[C@](NC(=O)C3C=C4c5cccc6[nH]c(Br)c(c56)C[C@H]4N(C)C3)(C(C)C)C(=O)N12 (stereo not given in full) ?
Reply: inactive

Every entry's value here was drawn from PubChem BioAssay AID1159580.
